Overview of recorded pKi for various molecules
target: biotin-tagged CRD4 (carbohydrate-recognition domain 4 of the mannose receptor, CD206) (Homo sapiens, UniProt P22897); construct: gene MRC1; borders from residues reported in crystals; assay: solid-phase competition with horseradish peroxidase, CRD4 immobilised on streptavidin plates; assay type: binding
Sequence (P22897 646-779): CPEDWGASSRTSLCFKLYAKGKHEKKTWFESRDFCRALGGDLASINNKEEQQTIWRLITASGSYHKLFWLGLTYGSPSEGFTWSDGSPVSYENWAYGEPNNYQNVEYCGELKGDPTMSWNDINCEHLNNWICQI
pKi: −log10 of the molar value.
assay_endpoint: pKi

{"columns": ["molecule", "result_value"],
 "data": [
  ["CO[C@H]1O[C@H](CO)[C@@H](O)[C@H](O)[C@@H]1O [α-Methyl mannose]", 3.05],
  ["CO[C@@H]1O[C@@H](C)[C@@H](O)[C@@H](O)[C@@H]1O [αMeFuc]", 3.96]
]}

====

Entries and their Ki values follow.
target: biotin-tagged CRD4 (carbohydrate-recognition domain 4 of the mannose receptor, CD206) (Homo sapiens); construct: gene MRC1; borders from residues reported in crystals; experiment: solid-phase competition with horseradish peroxidase, CRD4 immobilised on streptavidin plates; assay type: binding; details: competitive; 2.5 mM CaCl2, 150 mM NaCl, 25 mM Tris-Cl pH 7.8, 4 °C

{"columns": ["compound", "Ki (µM)"],
 "data": [
  ["OC[C@H]1O[C@H](OC[C@H]2OC(O)[C@@H](O)[C@@H](O)[C@@H]2O)[C@@H](O)[C@@H](O)[C@@H]1O (some centres unmarked)", 380],
  ["OC[C@H]1O[C@H](O[C@H]2[C@H](O)[C@@H](CO)OC(O)[C@H]2O)[C@@H](O)[C@@H](O)[C@@H]1O (some centres unmarked)", 860],
  ["OC[C@H]1O[C@H](O[C@H]2[C@H](O)[C@H](O)C(O)O[C@@H]2CO)[C@@H](O)[C@@H](O)[C@@H]1O (some centres unmarked)", 730],
  ["OC[C@H]1O[C@H](OC[C@H]2OC(O)[C@@H](O)[C@@H](O[C@H]3O[C@H](CO)[C@@H](O)[C@H](O)[C@@H]3O)[C@@H]2O)[C@@H](O)[C@@H](O)[C@@H]1O (some centres unmarked)", 300],
  ["OC[C@H]1O[C@H](O[C@@H]2C(O)O[C@H](CO)[C@@H](O)[C@@H]2O)[C@@H](O)[C@@H](O)[C@@H]1O (some centres unmarked)", 480]
]}
